Target: Kappa-type opioid receptor (Homo sapiens)
Sequence (P41145 whole entry): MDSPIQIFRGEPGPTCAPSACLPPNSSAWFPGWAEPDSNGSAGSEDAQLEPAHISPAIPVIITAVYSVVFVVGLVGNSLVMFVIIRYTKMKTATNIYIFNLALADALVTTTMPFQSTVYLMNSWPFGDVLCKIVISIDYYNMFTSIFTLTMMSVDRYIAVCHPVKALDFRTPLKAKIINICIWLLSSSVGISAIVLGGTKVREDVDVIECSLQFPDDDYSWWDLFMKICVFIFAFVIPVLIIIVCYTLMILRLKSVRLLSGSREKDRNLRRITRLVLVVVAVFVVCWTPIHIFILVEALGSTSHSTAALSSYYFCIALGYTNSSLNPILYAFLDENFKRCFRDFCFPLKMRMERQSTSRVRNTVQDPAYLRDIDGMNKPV
Test: Agonist activity at human kappa opioid receptor expressed in CHO cells assessed as [35S]GTPgammaS binding at 10 uM by scintillation counting analysis
Type: functional, cell-based
Active and inactive are the calls of the source. No cut-off for these calls is given here.
measure: Activity

Oc1ccc2c3c1O[C@H]1c4ncc(-c5ccc(Cl)cc5)cc4C[C@@]4(OCCCc5ccccc5)[C@@H](C2)N(CC2CC2)CC[C@]314 : inactive
Oc1ccc2c3c1O[C@H]1c4ncc(-c5ccc(Cl)cc5)cc4C=C4[C@@H](C2)N(CC2CC2)CC[C@]431 : inactive
CN1CC[C@]23c4c5ccc(O)c4O[C@H]2c2ncc(-c4ccc(Cl)cc4)cc2C[C@@]3(OCCCc2ccccc2)[C@H]1C5 : inactive
CN1CC[C@]23c4c5ccc(O)c4O[C@H]2c2ncc(-c4ccc(Cl)cc4)cc2C[C@@]3(OC(=O)c2ccccc2)[C@H]1C5 : inactive

Now examine the next entry.
Qu. Answer with the recorded Activity for the molecule listed here: "O=C(O[C@@]12Cc3cc(-c4ccc(Cl)cc4)cnc3[C@@H]3Oc4c(O)ccc5c4[C@@]31CCN(CC1CC1)[C@@H]2C5)c1ccccc1"
Ans. inactive
